Target: alpha2B receptor (Homo sapiens, UniProt P18089)
Construct: expressed in transfected cells; host or cells: NIH-3T3
Sequence (P18089 whole entry): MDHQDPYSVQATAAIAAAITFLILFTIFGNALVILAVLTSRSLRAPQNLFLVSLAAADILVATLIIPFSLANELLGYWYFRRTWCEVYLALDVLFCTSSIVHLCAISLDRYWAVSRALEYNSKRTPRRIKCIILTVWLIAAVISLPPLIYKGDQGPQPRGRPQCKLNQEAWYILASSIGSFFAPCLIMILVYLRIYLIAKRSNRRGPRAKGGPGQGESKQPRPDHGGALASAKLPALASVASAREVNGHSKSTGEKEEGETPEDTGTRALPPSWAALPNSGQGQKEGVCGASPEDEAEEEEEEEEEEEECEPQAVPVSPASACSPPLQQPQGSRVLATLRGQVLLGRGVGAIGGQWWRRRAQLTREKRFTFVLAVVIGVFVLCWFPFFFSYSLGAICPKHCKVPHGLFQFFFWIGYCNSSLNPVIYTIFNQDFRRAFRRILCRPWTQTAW
Experiment: Receptor Selection and Amplification Technology (RSAT) assay, alpha2B
Assay type: cell-based
Settings: ratio of maximal effect of the drug to maximal effect of standard full agonist brimonidine (UK14304)
Method: Receptor Selection and Amplification Technology (RSAT) Assay The RSAT assay measures a receptor-mediated loss of contact inhibition that results in selective proliferation of receptor-containing cells in a mixed population of confluent cells. The increase in cell number is assessed with an appropriate transfected marker gene such as β-galactosidase, the activity of which can be easily measured in a 96-well format. Receptors that activate the G protein, Gq, elicit this response. […]
Reported Endpoint: Alpha 2B IA (intrinsic activity)

Solved entries:
1) O=C(NCCF)NC1CCc2ccc(F)c(F)c21 (stereo not shown); 0.97
2) Cc1cccc2c1CC(NC(=O)NCCF)C2 (stereo not shown); 0.98
3) O=C(NCCF)NC1CCc2ccc(Br)cc21 (stereo not shown); 0.52
4) O=C(NCCF)NC1CCc2c(OC(=O)c3ccccc3)cccc21 (stereo not shown); 0.95
5) O=C(NCCF)NC1Cc2ccc(F)cc2C1 (stereo not shown); 0.93

P: O=C(NCCF)NC1CCc2ccc(Cl)cc21 (stereo not shown)
Q: COc1ccc2c(c1)CC(NC(=O)NCCF)C2 (stereo not shown)
Prompt line: Hello, I am sorting some records. Could you say if P or Q has the smaller Alpha 2B IA (intrinsic activity) value? Identify your pick by its label.
Response line: Q

---

Target: alpha2C receptor (Homo sapiens, UniProt P18825)
Construct: expressed in transfected cells; host or cells: NIH-3T3
Sequence (P18825 1-462): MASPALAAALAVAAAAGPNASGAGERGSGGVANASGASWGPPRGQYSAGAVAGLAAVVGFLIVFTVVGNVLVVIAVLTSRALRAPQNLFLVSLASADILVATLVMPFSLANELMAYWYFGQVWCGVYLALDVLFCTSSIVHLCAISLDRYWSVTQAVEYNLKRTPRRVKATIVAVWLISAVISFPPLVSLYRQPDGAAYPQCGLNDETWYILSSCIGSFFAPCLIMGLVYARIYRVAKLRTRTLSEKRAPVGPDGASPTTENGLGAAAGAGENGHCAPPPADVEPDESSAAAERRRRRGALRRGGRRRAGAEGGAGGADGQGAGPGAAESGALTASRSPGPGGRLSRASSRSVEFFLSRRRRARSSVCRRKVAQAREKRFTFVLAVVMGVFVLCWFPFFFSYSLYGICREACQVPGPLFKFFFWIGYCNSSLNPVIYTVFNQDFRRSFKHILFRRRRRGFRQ
Assay: Receptor Selection and Amplification Technology (RSAT) assay, alpha2C
Type: cell-based
Settings: ratio of maximal effect of the drug to maximal effect of standard full agonist brimonidine (UK14304)
Reported Endpoint: Alpha 2C IA (intrinsic activity)

1. COc1ccc2c(c1)CCC2NC(=O)NCCF (centres unmarked); 0.35
2. Cc1ccc2c(c1)C(NC(=O)NCCF)CC2 (centres unmarked); 0.31
3. Cc1cccc2c1CCC2NC(=O)NCCF (centres unmarked); 0.79
4. CCC1=C(C)C(NC(=O)NCCF)CC1 (centres unmarked); 0.37
5. COc1cccc2c1CCCC2NC(=O)NCCF (centres unmarked); 0.51

1: O=C(NCCF)NC1CCCc2c(Cl)cccc21 (centres unmarked)
2: Cc1cccc2c1CC(NC(=O)NCCF)C2 (centres unmarked)
Prompt line: Hello, I am sorting some records. Could you say if 1 or 2 has the smaller Alpha 2C IA (intrinsic activity) value? Identify your pick by its label.
Response line: 2
(2: 0.4, 1: 0.72)

P: COc1cccc2c1CC(NC(=O)NCCF)C2 (centres unmarked)
Q: O=C(NCCF)NC1CCc2ncccc21 (centres unmarked)
Prompt line: Hello, I am sorting some records. Could you say if P or Q has the smaller Alpha 2C IA (intrinsic activity) value? Identify your pick by its label.
Response line: Q
(Q: 0.41, P: 0.63)

Where these numbers come from: patent US7598417B2
